Provide the recorded composite z-score for the entries that follow.
- System: Plasmodium falciparum Sir2 (PF13_0152, Sir2A)
- Experiment Notes: pfSir2 binders on small-molecule microarrays, primary screen, biochemical, small-molecule microarray, 635 nm fluorescence (AID 1098);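 note: score merges spot fluorescence intensity with its signal-to-noise ratio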
- Condition Parameters: small-molecule microarray binding, fluorescence 635 nm; higher = more signal
Answer as a number with no unit attached.

Form: Entry = CN(C)C(=O)[C@]1(CCC(=O)OC(C)(C)C)N=C(c2ccc(OCCCO)cc2)O[C@@H]1c1ccccc1 | System = Plasmodium falciparum Sir2 (PF13_0152, Sir2A) | composite z-score = ____ 0.11

// fetch Plasmodium falciparum Sir2 (PF13_0152, Sir2A) composite z-score for COCCCNC(=O)[C@]1(Cc2ccccc2CN=[N+]=[N-])N=C(c2ccc(OCCCO)cc2)O[C@@H]1c1ccccc1 0.465

Please provide the recorded composite z-score for CC(C)(C)OC(=O)CC[C@]1(C(=O)N2CCOCC2)N=C(c2ccc(OCCCO)cc2)O[C@H]1c1ccccc1 , tested on Plasmodium falciparum Sir2 (PF13_0152, Sir2A). 1.65

Entry Cc1ccc(F)cc1S(=O)(=O)N[C@@H]1CCN(Cc2ccc(Oc3ccccc3)cc2)C1 , system Plasmodium falciparum Sir2 (PF13_0152, Sir2A): what composite z-score was measured? 0.499

Can you look up composite z-score on Plasmodium falciparum Sir2 (PF13_0152, Sir2A) for COc1cc2c(cc1OC)CN(C(=O)[C@H]1[C@@H]3C(=O)O[C@@H](c4ccccc4)[C@@H](c4ccccc4)N3[C@@H](c3ccc(OCCO)cc3)[C@]13C(=O)Nc1ccc(C#CC4(O)CCCCCC4)cc13)CC2 ? 1.09

Any idea what composite z-score came out for Cc1ccc(S[C@]2(C(=O)O)CC(=O)N(Cc3ccccc3Cl)[C@@H]2c2ccc(CO)cc2)cc1 on Plasmodium falciparum Sir2 (PF13_0152, Sir2A)? -0.189

State its composite z-score on Plasmodium falciparum Sir2 (PF13_0152, Sir2A): CC(=O)N1Cc2ccccc2C[C@]2(N=C(c3ccc(OCCCO)cc3)O[C@@H]2c2ccccc2)C1=O 1.55

Record NC(=O)NCC#Cc1ccc2c(c1)[C@]1(C(=O)N2)[C@H](C(=O)O)[C@H]2C(=O)O[C@H](c3ccccc3)[C@H](c3ccccc3)N2[C@@H]1c1ccccc1OCCO : what is its composite z-score with Plasmodium falciparum Sir2 (PF13_0152, Sir2A)? 1.37

For Plasmodium falciparum Sir2 (PF13_0152, Sir2A), provide composite z-score of CC(C)(C)OC(=O)CC[C@@]1(C(=O)O)N=C(c2ccc(OCCCO)cc2)O[C@@H]1c1ccccc1 please. 0.492

composite z-score of C=CCNC(=O)[C@@H]1[C@H]2C(=O)O[C@H](c3ccccc3)[C@H](c3ccccc3)N2[C@H](c2ccc(OCCO)cc2)[C@@]12C(=O)N(C(=O)OCCOC)c1ccc(C#CC3=CCCCC3)cc12 on Plasmodium falciparum Sir2 (PF13_0152, Sir2A)? 1.11

Notebook: pull reported composite z-score for Plasmodium falciparum Sir2 (PF13_0152, Sir2A), entry Cc1c(NC(=O)/C(C#N)=C/C=C/c2ccc(N(C)C)cc2)c(=O)n(-c2ccccc2)n1C 0.917

# value lookup — system Plasmodium falciparum Sir2 (PF13_0152, Sir2A), readout composite z-score, item CCOC(=O)C1=CC[C@@H](c2ccccc2C(F)(F)F)N(S(=O)(=O)c2ccc(C)cc2)C1 1.23

Enter reported composite z-score observed with Plasmodium falciparum Sir2 (PF13_0152, Sir2A) for COC(=O)[C@@]1(Cc2ccc(OC)cc2)[C@H]2c3cc(C(=O)N4CCCC4)n(CCc4cc5ccccc5[nH]4)c3C[C@H]2CN1C(=O)c1ccccc1 1.52

composite z-score of CN(C)CCCNC(=O)[C@@]1(C)c2ccccc2C(=O)N(Cc2cc(C(F)(F)F)cc(C(F)(F)F)c2)[C@H]1c1ccc(CO)cc1 on Plasmodium falciparum Sir2 (PF13_0152, Sir2A)? 1.01

What value of composite z-score on Plasmodium falciparum Sir2 (PF13_0152, Sir2A) does O=C1C[C@]2(c3ccc([N+](=O)[O-])cc3)C(=O)N(Cc3ccccc3)c3cc(CO)ccc3[C@H]2N1CC12CC3CC(CC(C3)C1)C2 have? -1.44

Quick check: composite z-score on Plasmodium falciparum Sir2 (PF13_0152, Sir2A), item CC(C)C(CO)N1C(=O)[C@]2(C)C3C(=O)OCCC/C=C\[C@H]3OC23C=CCN(c2ccc(Cl)cc2)C(=O)[C@@H]13 (some centres undefined) ? 1.11

Write down the reported composite z-score of NCCCCCCNC(=O)[C@H]1C[C@H]2C(=O)N[C@@H](Cc3ccccc3)C(=O)N2[C@H]1c1ccc(O)cc1 , test system: Plasmodium falciparum Sir2 (PF13_0152, Sir2A). 1.3

Query the reported composite z-score for Plasmodium falciparum Sir2 (PF13_0152, Sir2A); item: CC(C)CNC(=O)[C@@]1(c2ccc([N+](=O)[O-])cc2)CC(=O)N(C2CCCCC2)[C@@H]1c1ccc(CO)cc1I 1.67

Form: Entry = [N-]=[N+]=Nc1ccccc1[C@H]1OC(c2ccc(OCCCO)cc2)=N[C@@]1(CCS(=O)(=O)c1ccccc1)C(=O)N1CCCCC1 | System = Plasmodium falciparum Sir2 (PF13_0152, Sir2A) | composite z-score = ____ 1.37

Lab request: please report composite z-score under test system Plasmodium falciparum Sir2 (PF13_0152, Sir2A) for CO[C@H]1O[C@H](CO)[C@@H](OC(=O)Nc2ccccc2-c2ccccc2)[C@H](OC(=O)Nc2ccc3c(c2)OCO3)[C@@H]1OC(=O)Nc1ccc2c(c1)OCO2 1.32

API: value(readout=composite z-score, system=Plasmodium falciparum Sir2 (PF13_0152, Sir2A)) for record O=C1OCC=C[C@H]2OC34C=CCN(Cn5nnc6ccccc65)C(=O)[C@H]3N(CCCCCCO)C(=O)[C@@H]4[C@@H]12 (some centres undefined) 1.25

Requested read-out composite z-score, target or system Plasmodium falciparum Sir2 (PF13_0152, Sir2A), entry [N-]=[N+]=NCc1ccccc1C[C@@]1(C(=O)N2CCCCC2)N=C(c2ccc(OCCCO)cc2)O[C@@H]1c1ccccc1N=[N+]=[N-] 0.679

Which measured composite z-score belongs to COc1cc2c(cc1OC)CN(C(=O)[C@H]1[C@@H]3C(=O)O[C@@H](c4ccccc4)[C@@H](c4ccccc4)N3[C@@H](c3ccc(OCCO)cc3)[C@]13C(=O)Nc1ccc(C#CCCO)cc13)CC2 , tested on Plasmodium falciparum Sir2 (PF13_0152, Sir2A)? 0.903

Find composite z-score (Plasmodium falciparum Sir2 (PF13_0152, Sir2A)) for the entry CC(C)C[C@@H]1NC(=O)[C@H]2C[C@@H](C(=O)NCCCCCC[N+](C)(C)C)[C@@H](c3cccc(OCCO)c3)N2C1=O 1.14

Request: composite z-score, test system Plasmodium falciparum Sir2 (PF13_0152, Sir2A), entry O=C1NCC(=O)N2[C@@H]1C[C@@H](C(=O)O)[C@H]2c1ccc(O)cc1 1.41

// lookup composite z-score | system=Plasmodium falciparum Sir2 (PF13_0152, Sir2A) | key= Cc1ccc(S[C@]2(C(=O)NC(C)C)CC(=O)N(Cc3ccccc3C(F)(F)F)[C@@H]2c2ccc(CO)cc2I)cc1 1.29

# query: composite z-score | item CCCC[C@@H]1C[C@H]1[C@@H](NC(=O)c1ccccc1)c1ccc(Cl)cc1 | system: Plasmodium falciparum Sir2 (PF13_0152, Sir2A) -1.24

Please tell me: composite z-score of C=C(CCCC)/C(=C/C[C@@H](OC(C)=O)c1ccc(CO)o1)c1cc(C(=O)OC)ccc1OC , system Plasmodium falciparum Sir2 (PF13_0152, Sir2A)? 0.416

Notebook entry, Plasmodium falciparum Sir2 (PF13_0152, Sir2A) assay: composite z-score of C=CCN1C(=O)[C@]2(CC=C)N=C(c3ccc(OCCCO)cc3)O[C@@H]2c2ccccc21 = ? 1.08

---

- Experiment Notes: basal S. cerevisiae growth modulation, no modifier, primary screen, OD600, strain BY4716, 24 h, basal condition (AID 1173)
- Condition Parameters: OD600, 24 h, higher = more signal, called active from +8 up or from −8 down
Cut-off 0.02 on z-score, inclusive. At or above means y; below means n.

Reported z-score reaches at least 0.02 for O=c1cccc(-c2ccc(C(F)(F)F)cc2)o1 ? n

Entry COc1cc2c(cc1OC)CN(C(=O)[C@H]1[C@@H]3C(=O)O[C@@H](c4ccccc4)[C@@H](c4ccccc4)N3[C@@H](c3ccc(OCCO)cc3)[C@]13C(=O)Nc1ccc(C#CCCO)cc13)CC2 : is its z-score no less than 0.02? y

Could you verify whether the entry COCCOC(=O)N1C(=O)[C@@]2(c3cc(C#CC4=CCCCC4)ccc31)[C@H](C(=O)N1CCN(c3ncccn3)CC1)[C@H]1C(=O)O[C@H](c3ccccc3)[C@H](c3ccccc3)N1[C@@H]2c1ccc(O)cc1 shows z-score of no less than 0.02? y

Decide: is the reported value of z-score for CCCNC(=O)[C@@]1(c2ccc([N+](=O)[O-])cc2)CC(=O)N(C2CCCCC2)[C@@H]1c1ccc(CO)cc1I equal to or greater than 0.02? y

Say whether CC=CC(O)C1C=CC2C(=O)N(c3ccccc3)C(=O)C2N1Nc1ccccc1 (centres undefined) shows z-score of 0.02 or more. n

Dear colleague, could you confirm whether CCOC(=O)C1=C[C@@H](c2ccccc2)N(S(=O)(=O)c2ccc(C)cc2)[C@H]1c1cccc(Cl)c1 has z-score at or above 0.02? y

Determine whether measured z-score meets or exceeds 0.02 for C=C(/C(=C/C[C@@H](OC(=O)c1ccncc1)c1ccc(OCCO)cc1)c1cc(C(=O)OC)ccc1OC)C(C)C y

Hi, just wondering whether C#CCNC(=O)[C@H](Cc1ccccc1)NC(=O)[C@@H](N=[N+]=[N-])C(C)C shows z-score of 0.02 or higher. n

Please tell me: is the compound CC(C)(C)OC(=O)CC[C@]1(C(=O)O)N=C(c2ccc(OCCCO)cc2)O[C@H]1c1ccccc1CN=[N+]=[N-] at or over 0.02 in terms of z-score? n

Could you verify whether the entry COC(=O)[C@@]1(Cc2ccccc2)[C@H]2c3cc(C(=O)N4CCCC4)[nH]c3C[C@H]2CN1C(=O)c1ccccc1 shows z-score of no less than 0.02? y

In plain terms: is recorded z-score at least 0.02 for CC(C)CNC(=O)[C@@H]1c2ccccc2C(=O)N(Cc2cc(F)cc(C(F)(F)F)c2)[C@H]1c1ccc(CO)cc1 ? n

Please check the record C[N+](C)(C)CCCC[C@@H]1NC(=O)[C@@H]2C[C@H](C(=O)O)[C@H](c3ccc(O)cc3)N2C1=O and state if its z-score is at or above 0.02. y

Quick check: does C=CCNC(=O)[C@@H]1[C@H]2C(=O)O[C@H](c3ccccc3)[C@H](c3ccccc3)N2[C@H](c2ccccc2OCCO)[C@@]12C(=O)N(C(=O)OCCOC)c1ccc(C#CC3=CCCCC3)cc12 have z-score greater than or equal to 0.02? y
